test: Antioxidant activity assessed as inhibition of ferrous chloride-induced lipid peroxidation at 50 uM preincubated for 24 hrs followed by ferrous chloride addition relative to control; assay type: functional
Measurement kind: inhibition

Please review the entries below; each comes with its answer.
{"columns": ["Compound", "inhibition"],
 "data": [
  ["Cc1c(C)c2c(c(C)c1O)CCC(C)(C(=O)O)O2 (stereo not drawn)", "74%"],
  ["O=C([C@H]1CCCN1S(=O)(=O)c1ccc(Cl)cc1)N1CCN(c2ccnc3cc(Cl)ccc23)CC1", "< 1%"]
]}

Moving on to the next compound.
In: Any idea what inhibition was measured for O=C([C@H]1CCCN1S(=O)(=O)c1ccccc1)N1CCN(c2ccnc3cc(Cl)ccc23)CC1 ?
Out: < 1%
